Every entry's value here was drawn from ChEMBL document CHEMBL2016466.

Biological target: TCF4/beta-catenin (Homo sapiens, UniProt P35222+Q9NQB0)
Sequence (P35222 2-781 limits assumed, stated change not applied): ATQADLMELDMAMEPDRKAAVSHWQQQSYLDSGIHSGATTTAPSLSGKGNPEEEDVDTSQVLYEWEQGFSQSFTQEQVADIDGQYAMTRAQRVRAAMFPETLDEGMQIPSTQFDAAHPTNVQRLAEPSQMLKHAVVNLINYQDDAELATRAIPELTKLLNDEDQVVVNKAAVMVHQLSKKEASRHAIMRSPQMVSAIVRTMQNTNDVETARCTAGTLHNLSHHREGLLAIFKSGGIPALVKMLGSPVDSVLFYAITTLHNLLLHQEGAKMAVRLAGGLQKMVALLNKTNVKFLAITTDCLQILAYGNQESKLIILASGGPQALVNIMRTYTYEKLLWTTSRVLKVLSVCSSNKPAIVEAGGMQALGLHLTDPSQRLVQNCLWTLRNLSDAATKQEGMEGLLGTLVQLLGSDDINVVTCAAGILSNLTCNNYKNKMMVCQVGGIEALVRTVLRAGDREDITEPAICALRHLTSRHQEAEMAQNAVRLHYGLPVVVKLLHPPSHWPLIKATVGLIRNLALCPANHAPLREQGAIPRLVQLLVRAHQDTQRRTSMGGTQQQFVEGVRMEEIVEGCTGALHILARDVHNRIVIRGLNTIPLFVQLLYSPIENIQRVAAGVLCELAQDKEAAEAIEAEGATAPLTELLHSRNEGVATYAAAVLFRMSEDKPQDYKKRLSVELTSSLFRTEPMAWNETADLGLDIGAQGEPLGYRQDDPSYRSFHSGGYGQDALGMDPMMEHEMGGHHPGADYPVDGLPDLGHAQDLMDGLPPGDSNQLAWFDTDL
Sequence (Q9NQB0 whole entry, stated change not applied): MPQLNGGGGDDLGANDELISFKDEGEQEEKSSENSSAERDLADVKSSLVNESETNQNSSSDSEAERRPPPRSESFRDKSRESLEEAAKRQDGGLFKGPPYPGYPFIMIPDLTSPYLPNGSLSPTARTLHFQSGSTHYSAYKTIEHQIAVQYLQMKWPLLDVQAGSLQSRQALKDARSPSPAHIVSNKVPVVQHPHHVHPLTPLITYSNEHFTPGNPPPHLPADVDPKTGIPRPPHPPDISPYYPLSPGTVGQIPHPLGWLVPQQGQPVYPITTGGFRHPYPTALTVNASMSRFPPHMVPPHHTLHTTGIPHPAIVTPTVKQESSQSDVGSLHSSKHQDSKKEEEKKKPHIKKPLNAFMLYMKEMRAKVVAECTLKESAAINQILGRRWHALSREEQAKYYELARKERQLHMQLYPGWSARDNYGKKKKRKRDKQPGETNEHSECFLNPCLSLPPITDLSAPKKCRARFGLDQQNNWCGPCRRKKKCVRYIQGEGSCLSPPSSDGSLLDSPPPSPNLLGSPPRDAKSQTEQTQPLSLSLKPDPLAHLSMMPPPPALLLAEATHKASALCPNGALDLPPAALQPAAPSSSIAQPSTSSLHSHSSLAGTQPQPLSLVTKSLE
Experiment: Inhibition of beta-catenin/TCF4 pathway expressed in HCT116 cells containing delta45S mutant after 24 hrs by luciferase reporter gene assay
Details: hct-116
pIC50: −log10 of the molar value.
Listing: pIC50 of selected molecules
measured_quantity: pIC50

- molecule: "CC1CN(c2nc(NCc3ccc(C(=O)Nc4ccc(F)cc4)cc3)c3ccccc3n2)CCN1 (racemic)"
  qualifier_sign: "<"
  readout_value: 5.30
- molecule: "Cc1ccc2nc(N3CCNC(C)C3)nc(NCc3ccc(C(=O)NC4CCN(Cc5ccc(F)cc5)CC4)cc3)c2c1 (racemic)"
  qualifier_sign: "<"
  readout_value: 5.30
- molecule: "CCCNc1nc(NCc2ccc(C(=O)NCCc3ccc(F)cc3)cc2)c2cc(C)ccc2n1"
  qualifier_sign: "="
  readout_value: 5.70
- molecule: "CCCNc1nc(NCc2ccc(C(=O)NC3CCN(Cc4ccc(F)cc4)CC3)cc2)c2cc(C)ccc2n1"
  qualifier_sign: "="
  readout_value: 5.52
- molecule: "Cc1ccc2nc(N(C)C)nc(NCc3ccc(C(=O)N[C@H]4C[C@@H]4c4ccccc4)cc3)c2c1 (relative stereo)"
  qualifier_sign: "="
  readout_value: 5.52
